Attribution: the supplement of paper PMC6555819

Tested on: RARb:RXRa (NR concentration 270 nM, RXRa partner concentration 90 nM)
Test: PBM binding z-score (relative to random genomic background probes); higher = stronger binding; sequences stand for … in GC…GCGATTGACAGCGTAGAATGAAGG
readout-name: PBM binding z-score
Lab note: jot the number down without any unit.

In the examples that follow, each entry is paired with its recorded PBM binding z-score.
>  <construct-sequence>
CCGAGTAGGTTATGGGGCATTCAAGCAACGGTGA

>  <assay-result>
1.08

$$$$
>  <construct-sequence>
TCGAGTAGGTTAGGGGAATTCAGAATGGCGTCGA

>  <assay-result>
0.249

$$$$
>  <construct-sequence>
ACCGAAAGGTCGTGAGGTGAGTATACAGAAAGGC

>  <assay-result>
4

$$$$
>  <construct-sequence>
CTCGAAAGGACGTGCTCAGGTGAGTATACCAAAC

>  <assay-result>
0.749

$$$$
>  <construct-sequence>
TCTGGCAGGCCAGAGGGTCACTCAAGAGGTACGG

>  <assay-result>
2.31

$$$$

## Input Find the recorded PBM binding z-score belonging to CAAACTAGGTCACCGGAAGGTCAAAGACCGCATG and report it.
## Output 5.2

## Input Which value of PBM binding z-score has been reported for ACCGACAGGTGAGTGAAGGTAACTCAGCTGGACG in the records?
## Output 0.605

## Input PBM binding z-score for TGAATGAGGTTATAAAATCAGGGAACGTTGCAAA ?
## Output 0.918
